Assay: Plasma kinetics in rat following intravenous and oral administration
Format: in vivo, Sprague Dawley rats
Conditions: male, Sprague Dawley, rat, plasma, iv, 10 mg/kg, single intravenous 10 mg/kg, male rats, 4 h, mean of 3; read-out: Mean Concentration in plasma
Procedure: This study determined the intravenous pharmacokinetics and oral bioavailability of compound 1 of the invention (see FIG. 1A, structure no. 1), compound 2 of the invention (see FIG. 1D, structure no. 19) and compound 3 of the invention (see FIG. 1I, structure no. 53) following administration to Sprague Dawley rats at a dose level of 10 mg/kg. […]
Result type: concentration at 4 h (ng/mL)
Please give a number only; it is taken to be in ng/mL.

Sample records with concentration at 4 h:
INSERT INTO results (compound, unit_annotation, obs_value) VALUES
  ('N=C(N)NN=CC=Cc1cccn1-c1ccccc1Br [Compound 3, acetate]', 'ng/mL', 192),
  ('N=C(N)NN=CC=Cc1cccn1-c1ccc(Cl)cc1 [Compound 1, acetate]', 'ng/mL', 254);

Let's switch to this compound now.
Inquiry: So what's the measured concentration at 4 h for this one? N=C(N)NN=CC=Cc1cccn1-c1ccccc1[N+](=O)[O-] [Compound 2, acetate]
Reply text: 132
